pIC50: −log10 of the molar value.
For reference, pIC50 measured on c-kit (Homo sapiens, UniProt P10721):

{"columns": ["molecule", "pIC50"],
 "data": [
  ["CCS(=O)(=O)Oc1ccc(C(=O)/C=C2/C(=O)Nc3ccccc32)cc1", 6.61],
  ["CCS(=O)(=O)N(c1ccc(C(=O)/C=C2/C(=O)Nc3ccccc32)cc1)S(=O)(=O)CC [Compound 10b]", 6.73],
  ["CCS(=O)(=O)Oc1ccc(C(=O)/C=C2/C(=O)Nc3ccc(Cl)cc32)cc1", 7.14],
  ["CS(=O)(=O)Oc1ccc(C(=O)/C=C2/C(=O)Nc3ccccc32)cc1", 6.92],
  ["CS(=O)(=O)N(c1ccc(C(=O)/C=C2/C(=O)Nc3ccccc32)cc1)S(C)(=O)=O [Compound 10a]", 6.99],
  ["CCS(=O)(=O)N(c1ccc(C(=O)/C=C2/C(=O)Nc3ccc(Cl)cc32)cc1)S(=O)(=O)CC [Compound 10c]", 7.09]
]}

* * *

# pIC50 per record follows
molecular target: VEGFR-2 (Homo sapiens, UniProt P35968)
Sequence (P35968 20-1356): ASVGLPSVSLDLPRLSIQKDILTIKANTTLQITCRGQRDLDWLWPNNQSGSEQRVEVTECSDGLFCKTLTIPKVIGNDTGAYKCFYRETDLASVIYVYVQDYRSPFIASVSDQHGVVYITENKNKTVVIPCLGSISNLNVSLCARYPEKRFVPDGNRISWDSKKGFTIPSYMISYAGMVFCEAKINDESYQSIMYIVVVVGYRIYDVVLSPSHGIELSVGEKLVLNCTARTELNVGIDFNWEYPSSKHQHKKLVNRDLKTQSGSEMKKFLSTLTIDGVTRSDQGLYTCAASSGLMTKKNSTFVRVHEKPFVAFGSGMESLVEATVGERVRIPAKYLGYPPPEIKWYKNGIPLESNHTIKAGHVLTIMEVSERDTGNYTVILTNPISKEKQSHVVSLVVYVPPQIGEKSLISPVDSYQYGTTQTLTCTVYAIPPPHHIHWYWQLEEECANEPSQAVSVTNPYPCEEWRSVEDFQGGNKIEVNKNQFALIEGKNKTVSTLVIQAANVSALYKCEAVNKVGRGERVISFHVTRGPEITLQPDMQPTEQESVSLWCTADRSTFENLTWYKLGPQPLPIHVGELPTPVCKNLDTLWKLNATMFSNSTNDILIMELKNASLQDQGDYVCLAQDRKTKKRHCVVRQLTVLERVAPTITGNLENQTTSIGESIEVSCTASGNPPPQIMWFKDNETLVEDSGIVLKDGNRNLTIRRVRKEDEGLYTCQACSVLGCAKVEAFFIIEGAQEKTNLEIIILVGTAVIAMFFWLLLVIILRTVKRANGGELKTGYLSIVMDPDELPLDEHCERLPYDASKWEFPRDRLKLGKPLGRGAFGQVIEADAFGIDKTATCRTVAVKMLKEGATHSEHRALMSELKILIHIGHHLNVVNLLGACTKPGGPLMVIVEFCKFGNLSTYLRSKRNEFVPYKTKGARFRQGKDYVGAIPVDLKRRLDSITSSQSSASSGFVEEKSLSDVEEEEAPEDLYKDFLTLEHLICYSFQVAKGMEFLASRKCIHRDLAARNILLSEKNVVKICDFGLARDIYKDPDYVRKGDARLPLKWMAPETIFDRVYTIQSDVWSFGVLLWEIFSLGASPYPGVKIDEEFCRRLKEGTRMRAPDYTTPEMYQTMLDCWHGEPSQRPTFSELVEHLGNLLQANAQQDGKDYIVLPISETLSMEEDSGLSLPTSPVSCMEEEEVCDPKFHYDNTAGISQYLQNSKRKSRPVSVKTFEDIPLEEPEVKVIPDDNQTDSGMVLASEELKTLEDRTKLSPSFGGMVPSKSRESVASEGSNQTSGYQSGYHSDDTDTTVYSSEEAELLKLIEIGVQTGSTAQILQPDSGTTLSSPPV
pIC50: −log10 of the molar value.

{"columns": ["molecule", "pIC50"],
 "data": [
  ["CS(=O)(=O)N(c1ccc(C(=O)/C=C2/C(=O)Nc3ccccc32)cc1)S(C)(=O)=O [Compound 10a]", 6.99],
  ["CCS(=O)(=O)Oc1ccc(C(=O)/C=C2/C(=O)Nc3ccc(Cl)cc32)cc1 [Compound 6c]", 7.43],
  ["CCS(=O)(=O)Oc1ccc(C(=O)/C=C2/C(=O)Nc3ccccc32)cc1 [Compound 6b]", 7.00],
  ["CCS(=O)(=O)N(c1ccc(C(=O)/C=C2/C(=O)Nc3ccc(Cl)cc32)cc1)S(=O)(=O)CC [Compound 10c]", 7.27],
  ["CCS(=O)(=O)N(c1ccc(C(=O)/C=C2/C(=O)Nc3ccccc32)cc1)S(=O)(=O)CC [Compound 10b]", 7.13],
  ["CS(=O)(=O)Oc1ccc(C(=O)/C=C2/C(=O)Nc3ccccc32)cc1 [Compound 6a]", 7.27]
]}
